B1: tRNA (parent)
chain: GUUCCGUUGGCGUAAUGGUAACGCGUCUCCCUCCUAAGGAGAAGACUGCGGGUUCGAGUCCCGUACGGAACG

variants of: B1; test: yeast fitness, log relative to wild type (ln ratio); higher = fitter; tRNA-Arg(CCU), competitive growth, 37 C, 1 M NaCl
// label = T if yeast fitness (ln) is not less than -0.2, otherwise F

| residue.sequence | assigned.category |
| --- | --- |
| GGUCCUUUGGCGUAAUGGUAACGCGUCUCCCUCCUAAGGAGACGACUGCGGGUUCGAGUCCCGUACGGGGUG [U2G G6U A43C A69G A70G C71U] | F |
| GCUCCAUUGGCGUAAUGGUAACGCGUUUCCCUCCUAAGGAGACGACUGCGGGUUCGAGUCCCGUAUGGAGUG [U2C G6A C27U A43C C66U A70G C71U] | T |
| GCUCCUUUGGCGUAAUGGUAACGCGUUUCCCUCCUAAGGAGACGAUUGCGGGUUCGAGUCCCGUACGGAUUG [U2C G6U C27U A43C C46U A70U C71U] | T |
| AUUCCUUUGGCGUAAUGGUAACGCGUUUCCCUCCUAAGGAGACGAUUGCGGGUUCGAGUCCCGUACGGGGCG [G1A G6U C27U A43C C46U A69G A70G] | F |
| GUUCCUUUGGCGUAAUGGUAACGCGUUUCCCUCCUAAGGAGACGAUUGCGGGUUCGAGUCCCGUACGGGGCG [G6U C27U A43C C46U A69G A70G] | F |
| AGUCCUUUGGCGUAAUGGUAACGCGUCUCCCUCCUAAGGAGACGACUGCGGGUUCGAGUCCCGUACGGGGUG [G1A U2G G6U A43C A69G A70G C71U] | F |
| GGUCCUUUGGCGUAAUGGUAACGCGUUUCCCUCCUAAGGAGAAGAUUGCGGGUUCGAGUCCCGUACGGAUCG [U2G G6U C27U C46U A70U] | T |
| AUUCCGUUGGCGUAAUGGUAACGCGUUUCCCUCCUAAGGAGACGAUUGCGGGUUCGAGUCCCGUAAGGGUCG [G1A C27U A43C C46U C66A A69G A70U] | F |
| AUUCCUUUGGCGUAAUGGUAACGCGUUUCCCUCCUAAGGAGACGACUGCGGGUUCGAGUCCCGUAAGGAGCG [G1A G6U C27U A43C C66A A70G] | F |
| AUUCCUUUGGCGUAAUGGUAACGCGUCUCCCUCCUAAGGAGACGAUUGCGGGUUCGAGUCCCGUAAGGAGUG [G1A G6U A43C C46U C66A A70G C71U] | F |
| GUUCCUUUGGCGUAAUGGUAACGCGUCUCCCUCCUAAGGAGACGACUGCGGGUUCGAGUCCCGUACGGAACG [G6U A43C] | T |
| AGUCCAUUGGCGUAAUGGUAACGCGUCUCCCUCCUAAGGAGACGACUGCGGGUUCGAGUCCCGUAAGGAUCG [G1A U2G G6A A43C C66A A70U] | F |
| GUUCCAUUGGCGUAAUGGUAACGCGUUUCCCUCCUAAGGAGACGAUUGCGGGUUCGAGUCCCGUAAGGGUUG [G6A C27U A43C C46U C66A A69G A70U C71U] | F |
| GGUCCAUUGGCGUAAUGGUAACGCGUUUCCCUCCUAAGGAGACGAUUGCGGGUUCGAGUCCCGUAUGGAUCG [U2G G6A C27U A43C C46U C66U A70U] | T |
| ACUCCGUUGGCGUAAUGGUAACGCGUCUCCCUCCUAAGGAGAAGAUUGCGGGUUCGAGUCCCGUAUGGGUCG [G1A U2C C46U C66U A69G A70U] | T |
| GGUCCUUUGGCGUAAUGGUAACGCGUCUCCCUCCUAAGGAGACGAUUGCGGGUUCGAGUCCCGUAUGGGUCG [U2G G6U A43C C46U C66U A69G A70U] | F |
| GCUCCAUUGGCGUAAUGGUAACGCGUCUCCCUCCUAAGGAGAAGAUUGCGGGUUCGAGUCCCGUAUGGAGUG [U2C G6A C46U C66U A70G C71U] | T |
| GGUCCGUUGGCGUAAUGGUAACGCGUUUCCCUCCUAAGGAGACGAUUGCGGGUUCGAGUCCCGUACGGGGCG [U2G C27U A43C C46U A69G A70G] | T |
| AGUCCGUUGGCGUAAUGGUAACGCGUUUCCCUCCUAAGGAGACGAUUGCGGGUUCGAGUCCCGUACGGAUUG [G1A U2G C27U A43C C46U A70U C71U] | T |
| GCUCCAUUGGCGUAAUGGUAACGCGUUUCCCUCCUAAGGAGAAGACUGCGGGUUCGAGUCCCGUAAGGAGUG [U2C G6A C27U C66A A70G C71U] | T |
| AUUCCGUUGGCGUAAUGGUAACGCGUCUCCCUCCUAAGGAGACGAUUGCGGGUUCGAGUCCCGUAAGGAUUG [G1A A43C C46U C66A A70U C71U] | T |
